experimental_target: UniProt P81908
Sequence (P81908 whole entry): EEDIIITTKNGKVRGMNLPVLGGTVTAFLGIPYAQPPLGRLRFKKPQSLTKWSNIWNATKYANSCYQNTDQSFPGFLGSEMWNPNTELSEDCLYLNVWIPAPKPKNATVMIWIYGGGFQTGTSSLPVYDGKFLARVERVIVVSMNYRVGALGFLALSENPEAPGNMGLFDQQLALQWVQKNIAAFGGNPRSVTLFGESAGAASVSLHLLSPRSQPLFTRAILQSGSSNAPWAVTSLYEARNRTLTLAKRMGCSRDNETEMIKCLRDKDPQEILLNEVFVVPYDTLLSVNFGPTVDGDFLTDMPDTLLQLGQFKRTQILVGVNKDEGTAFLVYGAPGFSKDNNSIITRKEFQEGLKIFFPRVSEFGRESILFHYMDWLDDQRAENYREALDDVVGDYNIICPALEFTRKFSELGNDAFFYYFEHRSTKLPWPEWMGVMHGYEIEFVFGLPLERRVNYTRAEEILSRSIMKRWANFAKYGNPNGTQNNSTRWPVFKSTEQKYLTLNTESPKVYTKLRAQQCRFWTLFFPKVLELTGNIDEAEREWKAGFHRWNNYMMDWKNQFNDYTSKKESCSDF
assay_info: Inhibition of equine serum BuChE at 10 uM using butyrylthiocholine iodide as substrate preincubated for 5 mins followed by substrate addition measured after 5 mins by Ellman's method relative to control
Below: a set of entries, each annotated with reported inhibition.

O=C1c2ccccc2S(=O)(=O)N1CCN1CCN(Cc2cc(F)cc(F)c2)CC1; 11%
O=C1c2ccccc2C(=O)N1CCN1CCCC(NCc2ccccc2F)C1 (centres undefined); < 10%
O=C1c2ccccc2C(=O)N1CCN1CCCN(Cc2cc(F)cc(F)c2)C1; < 10%
O=C1c2ccccc2C(=O)N1CCN1CCN(Cc2ccccc2F)CC1; < 10%
O=C1c2ccccc2C(=O)N1CCNC1CCCN(Cc2cc(F)cc(F)c2)C1 (centres undefined); 14.2%
O=C1c2ccccc2S(=O)(=O)N1CCN1CCCN(Cc2ccccc2F)C1; 21.6%
O=C1c2ccccc2C(=O)N1CCN1CCCC(NCc2cc(F)cc(F)c2)C1 (centres undefined); 20%
O=C1c2ccccc2S(=O)(=O)N1CCCCCN1CCN(Cc2ccccc2F)CC1; 21.9%

Now let's try a different one.
Query: Name the recorded inhibition of the compound listed here: "O=C1c2ccccc2S(=O)(=O)N1CCN1CCN(Cc2cccc(F)c2)CC1"
Response: < 10%

Value source: ChEMBL document CHEMBL3877277
